- System Under Test: B1R of the rat (Rattus norvegicus, UniProt P97583)
- Construct: expressed in transfected cells; host or cells: CHO K1 cells (Chinese hamster ovary), stably transfected
- Sequence (P97583 1-337): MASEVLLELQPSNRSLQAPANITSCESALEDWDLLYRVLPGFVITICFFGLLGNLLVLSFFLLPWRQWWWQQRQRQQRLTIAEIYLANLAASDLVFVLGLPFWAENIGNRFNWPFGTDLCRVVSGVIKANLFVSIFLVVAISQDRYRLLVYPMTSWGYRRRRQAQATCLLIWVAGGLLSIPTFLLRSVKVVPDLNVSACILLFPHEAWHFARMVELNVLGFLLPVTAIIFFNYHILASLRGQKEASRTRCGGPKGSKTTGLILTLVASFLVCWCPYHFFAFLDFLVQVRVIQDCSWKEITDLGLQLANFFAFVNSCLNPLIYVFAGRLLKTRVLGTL
- Protocol Details: FLIPR Ca2+ functional assay, B1R antagonism, rat B1R in CHO K1 cells
- Type: cell-based
- Measurement Setup: test substance 10 μM; rB1R CHO K1 cells; agonist Des-Arg9 bradykinin at EC80; % of maximum achievable inhibition
Metric Name: inhibition at 10 µM (%)
Write the answer as a number in %, unit excluded.

Reference set, count: 2
Cc1ccc2[nH]c(C3CCN(C(=O)CC4c5cccn5CCN4S(=O)(=O)c4cccc(C(F)(F)F)c4)CC3)nc2c1 (stereo not shown) = -1.61
COc1cc(C)c(S(=O)(=O)N2CCn3cccc3C2CC(=O)N2CCC(Cc3ccccc3)CC2)c(C)c1 (stereo not shown) = 75.5

Exercise: Give inhibition at 10 µM; test system B1R of the rat (Rattus norvegicus, UniProt P97583); compound CN(C)Cc1ccc2c(c1)CCC(NC(=O)CC1c3cccn3CCN1S(=O)(=O)c1cccc(C(F)(F)F)c1)C2 (stereo not shown)
Key: 102

Exercise: Give inhibition at 10 µM; test system B1R of the rat (Rattus norvegicus, UniProt P97583); compound Cc1ccc(S(=O)(=O)N2CCn3cccc3C2CC(=O)NC2CCCc3cc(CN4C5CCCC4CC5)ccc32)cc1 (stereo not shown)
Key: 101

Exercise: Give inhibition at 10 µM; test system B1R of the rat (Rattus norvegicus, UniProt P97583); compound COc1cc(C)c(S(=O)(=O)N2CCn3cccc3C2COCC(=O)NC2CCN(c3ccc(C(F)(F)F)cn3)CC2)c(C)c1 (stereo not shown)
Key: 65.5

Exercise: Give inhibition at 10 µM; test system B1R of the rat (Rattus norvegicus, UniProt P97583); compound Cc1cccc(Cl)c1S(=O)(=O)N1CCn2cccc2C1CC(=O)N1CCN(Cc2ccc(Cl)cc2)CC1 (stereo not shown)
Key: -12.6

Exercise: Give inhibition at 10 µM; test system B1R of the rat (Rattus norvegicus, UniProt P97583); compound COc1cc(C)c(S(=O)(=O)N2CCn3cccc3C2CC(=O)N2CCN(Cc3ccc(Cl)cc3)CC2)c(C)c1 (stereo not shown)
Key: 55.9

---

- System Under Test: B1R of the rat (Rattus norvegicus, UniProt P97583)
- Construct: expressed in transfected cells; host or cells: CHO K1 cells (Chinese hamster ovary), stably transfected
- Sequence (P97583 1-337): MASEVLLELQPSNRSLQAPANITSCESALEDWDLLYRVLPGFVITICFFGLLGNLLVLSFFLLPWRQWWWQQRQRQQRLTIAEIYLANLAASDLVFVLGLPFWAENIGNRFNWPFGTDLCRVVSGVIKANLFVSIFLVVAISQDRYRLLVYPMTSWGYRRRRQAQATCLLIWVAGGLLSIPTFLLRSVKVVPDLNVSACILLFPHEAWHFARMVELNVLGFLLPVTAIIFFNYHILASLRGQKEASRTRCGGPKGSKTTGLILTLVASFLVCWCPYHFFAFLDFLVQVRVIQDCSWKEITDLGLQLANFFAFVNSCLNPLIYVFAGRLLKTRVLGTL
- Protocol Details: FLIPR Ca2+ functional assay, B1R antagonism, rat B1R in CHO K1 cells
- Type: cell-based
- Measurement Setup: test substance 10 μM; rB1R CHO K1 cells; agonist Des-Arg9 bradykinin at EC80; % of maximum achievable inhibition
Metric Name: inhibition at 10 µM

COc1ccc2cc(S(=O)(=O)N3CCn4cccc4C3CC(=O)NC3Cc4ccc(CN5CCCCC5)cc4C3)ccc2c1 (stereo not shown) = 105%
COc1ccc2cc(S(=O)(=O)N3CCn4cccc4C3CC(=O)NC3CCc4cc(CN(C)C(C)(C)C)ccc4C3)ccc2c1 (stereo not shown) = 102%
O=C(CC1c2cccn2CCN1S(=O)(=O)c1cccc(C(F)(F)F)c1)NC1CCc2cc(CN3CCCc4ccccc43)ccc2C1 (stereo not shown) = 90.7%

For the next question, use this compound.
Exercise: Input Cc1cccc(Cl)c1S(=O)(=O)N1CCn2cccc2C1CC(=O)N1CCC(N2CCOCC2)CC1 (stereo not shown) , output reported inhibition at 10 µM.
Key: 3.48%

---

- System Under Test: human B1R (Homo sapiens, UniProt P46663)
- Construct: expressed in transfected cells; host or cells: CHO K1 cells (Chinese hamster ovary), stably transfected
- Sequence (P46663 1-353): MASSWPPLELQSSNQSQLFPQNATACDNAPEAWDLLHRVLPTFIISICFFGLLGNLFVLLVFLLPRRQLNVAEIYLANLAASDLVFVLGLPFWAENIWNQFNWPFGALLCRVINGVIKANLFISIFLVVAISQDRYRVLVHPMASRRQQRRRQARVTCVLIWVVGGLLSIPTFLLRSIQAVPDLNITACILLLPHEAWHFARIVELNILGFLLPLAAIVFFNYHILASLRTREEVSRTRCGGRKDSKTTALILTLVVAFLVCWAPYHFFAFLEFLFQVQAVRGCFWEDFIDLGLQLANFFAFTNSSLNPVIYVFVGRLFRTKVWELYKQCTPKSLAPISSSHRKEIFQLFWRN
- Protocol Details: FLIPR Ca2+ functional assay, B1R antagonism, human B1R in CHO K1 cells
- Format: cell-based
- Measurement Setup: test substance 10 μM; hB1R CHO K1 cells; agonist Lys-Des-Arg9 bradykinin at EC80; % of maximum achievable inhibition
- Experimental: The agonistic or antagonistic action of substances on the bradykinin 1 receptor (B1R) of the human and rat species can be quantified with ectopically expressing cell lines (CHO K1 cells) and with the aid of a Ca^2+-sensitive dye (Fluo-4) using a fluorescent imaging plate reader (FLIPR). […] Antagonists lead to a suppression of the Ca^2+ inflow. The % inhibition in comparison with the maximum achievable inhibition is calculated. […]
Reported inhibition at 10 µM values follow for various molecules
Write the answer as a number in %, unit excluded.

Reference set, count: 6
COc1ccc2cc(S(=O)(=O)N3CCn4cccc4C3CC(=O)NC3CCc4cc(CN5C6CCCC5CC6)ccc4C3)ccc2c1 (centres unmarked) = 100
Cc1ccc(S(=O)(=O)N2CCn3cccc3C2CC(=O)NC2CCc3cc(CN4CCN(C)CC4)ccc3C2)cc1 (centres unmarked) = 99.1
Cc1ccc(S(=O)(=O)N2CCn3cccc3C2CC(=O)NC2CCc3cc(CN4CCCc5ccccc54)ccc3C2)cc1 (centres unmarked) = 57.9
COc1ccc2cc(S(=O)(=O)N3CCn4cccc4C3CC(=O)NC3CCc4cc(CN5CCOCC5)ccc4C3)ccc2c1 (centres unmarked) = 100
Cc1ccc(S(=O)(=O)N2CCn3cccc3C2CC(=O)NC2CCCc3cc(CNCc4ccccc4)ccc32)cc1Cl (centres unmarked) = 100
COc1ccc2cc(S(=O)(=O)N3CCn4cccc4C3CC(=O)NC3CCc4cc(CNC(C)(C)C)ccc4C3)ccc2c1 (centres unmarked) = 100

Exercise: Give inhibition at 10 µM; test system human B1R (Homo sapiens, UniProt P46663); molecule Cc1ccc(S(=O)(=O)N2CCn3cccc3C2CC(=O)NC2CCc3cc(CN(C)C(C)(C)C)ccc3C2)cc1Cl (centres unmarked)
Key: 99.9

Exercise: Give inhibition at 10 µM; test system human B1R (Homo sapiens, UniProt P46663); molecule COc1cc(C)c(S(=O)(=O)N2CCn3cccc3C2COCC(=O)NC2CCN(c3ccc(C(F)(F)F)cn3)C2)c(C)c1 (centres unmarked)
Key: 15.7

Exercise: Give inhibition at 10 µM; test system human B1R (Homo sapiens, UniProt P46663); molecule O=C(COCC1c2cccn2CCN1S(=O)(=O)c1ccccc1C(F)(F)F)N1CCC(Oc2ccncc2)CC1 (centres unmarked)
Key: 99.8

Exercise: Give inhibition at 10 µM; test system human B1R (Homo sapiens, UniProt P46663); molecule COc1ccc2cc(S(=O)(=O)N3CCn4cccc4C3CC(=O)NC3CCCc4cc(CN5CCOCC5)ccc43)ccc2c1 (centres unmarked)
Key: 97.8

Exercise: Give inhibition at 10 µM; test system human B1R (Homo sapiens, UniProt P46663); molecule Cc1ccc(S(=O)(=O)N2CCn3cccc3C2CC(=O)NC2CCCc3cc(CN4CCCC4)ccc32)cc1Cl (centres unmarked)
Key: 99.9
